B1: PhoQ; a variant is named by its letters at X, in order, P23837 (parent)
chain: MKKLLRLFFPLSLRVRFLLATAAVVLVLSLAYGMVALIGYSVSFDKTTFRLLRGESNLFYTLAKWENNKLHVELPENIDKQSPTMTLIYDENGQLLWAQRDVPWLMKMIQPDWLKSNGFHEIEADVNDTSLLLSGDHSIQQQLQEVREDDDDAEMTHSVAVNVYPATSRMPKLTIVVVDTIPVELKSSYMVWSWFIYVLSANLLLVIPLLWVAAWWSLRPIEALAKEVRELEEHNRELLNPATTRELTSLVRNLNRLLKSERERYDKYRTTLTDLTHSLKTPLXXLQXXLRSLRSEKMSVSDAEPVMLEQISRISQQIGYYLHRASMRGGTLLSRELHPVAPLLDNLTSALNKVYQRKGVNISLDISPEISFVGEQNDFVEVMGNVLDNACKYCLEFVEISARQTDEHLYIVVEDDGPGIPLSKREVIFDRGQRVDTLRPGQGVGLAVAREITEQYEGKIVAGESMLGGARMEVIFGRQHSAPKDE

# Variants of: B1
# assay.explanation: enrichment ratio after two sorts for PhoP signalling (ratio (wild type AVST 3.29)); higher = more functional
# details: with PhoP (E. coli)
Whole data set: some 140,000 sequences, median “enrichment ratio after two sorts for PhoP signalling” near 0, cut for the highest 2% near 11. This excerpt belongs to a sample that is enriched for the highest values.
parameter: enrichment ratio

>>> value_measured("IDDH")
"≤ 0.25"
>>> value_measured("NSCM")
"≤ 0.25"
>>> value_measured("TSCM")
25.8
>>> value_measured("QHDA")
10.1
>>> value_measured("FCCM")
"≤ 0.25"
>>> value_measured("SIGD")
7.24
>>> value_measured("QHDK")
"≤ 0.25"
>>> value_measured("SCRE")
"≤ 0.25"
>>> value_measured("KSTG")
"≤ 0.25"
>>> value_measured("SFTI")
"≤ 0.25"
>>> value_measured("SSSR")
"≤ 0.25"
>>> value_measured("RSCM")
"≤ 0.25"
>>> value_measured("TVTG")
15.3
>>> value_measured("QHDM")
19.5
>>> value_measured("QHGM")
"≤ 0.25"
>>> value_measured("THDG")
"≤ 0.25"
>>> value_measured("QAAM")
"≤ 0.25"
>>> value_measured("QEAM")
"≤ 0.25"
>>> value_measured("QHDS")
29.2
>>> value_measured("SSSK")
"≤ 0.25"
>>> value_measured("VSCM")
13.1
>>> value_measured("VSCK")
"≤ 0.25"
>>> value_measured("LERK")
"≤ 0.25"
>>> value_measured("QSHI")
15.9
>>> value_measured("MMCM")
"≤ 0.25"
>>> value_measured("KNHV")
"≤ 0.25"
>>> value_measured("KYTS")
"≤ 0.25"
>>> value_measured("KSHI")
"≤ 0.25"
>>> value_measured("PYDF")
"≤ 0.25"
>>> value_measured("QSDI")
14.8
>>> value_measured("SQSI")
16.7
>>> value_measured("SITA")
20
>>> value_measured("SQTI")
13.3
>>> value_measured("PHDG")
"≤ 0.25"
>>> value_measured("QHDG")
110
>>> value_measured("VCCM")
13.1
>>> value_measured("QPDI")
"≤ 0.25"
>>> value_measured("NHDI")
"≤ 0.25"
>>> value_measured("KYLA")
"≤ 0.25"
>>> value_measured("THDI")
"≤ 0.25"
>>> value_measured("LCCM")
"≤ 0.25"
>>> value_measured("QSHV")
11.3
>>> value_measured("STSI")
8.26
>>> value_measured("SQTA")
0.808
>>> value_measured("SGDH")
"≤ 0.25"
>>> value_measured("FSCM")
16.6

Recorded values, source a collection of fitness landscapes (doi:10.1126/science.1257360).
